# testedTarget: T1, biotinylated His-tagged PD-1 (Homo sapiens, UniProt Q15116, biotin)
# T1 construct: PD-1, His-tagged, biotinylated, used in the MSD experiments; probably the R&D Systems Leu25-Thr168 protein after biotinylation
# T1 sequence (Q15116 whole entry, looked up, tested part not stated): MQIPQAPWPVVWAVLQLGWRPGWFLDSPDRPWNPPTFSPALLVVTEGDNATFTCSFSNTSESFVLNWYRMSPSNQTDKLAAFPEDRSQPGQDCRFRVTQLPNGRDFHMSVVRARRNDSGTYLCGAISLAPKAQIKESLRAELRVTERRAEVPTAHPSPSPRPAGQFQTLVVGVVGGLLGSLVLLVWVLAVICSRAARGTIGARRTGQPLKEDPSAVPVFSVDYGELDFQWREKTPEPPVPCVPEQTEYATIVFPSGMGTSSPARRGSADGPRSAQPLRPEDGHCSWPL
# assayRemarks: MSD solution equilibrium titration; 100 pM biotinylated His-tagged PD-1 titrated with mAb (top 100, 50 or 10 nM binding sites), 18 h at room temperature; free antigen captured on mAb-coated MSD plates; relative KD
# conditions: both partners purified
Decision: Kd beneath 0.06 nM gives fulfilled; Kd meeting or exceeding 0.06 nM gives not fulfilled.

>  <binder>
mAb23 (analog of cemiplimab) (antibody, V domains shown, VH; IgG4 heavy-chain constant region with stabilizing 226CPPC hinge; VL; IgG4 analog; source: HEK293 suspension cells, cotransfected, purified (Protein A)) VH: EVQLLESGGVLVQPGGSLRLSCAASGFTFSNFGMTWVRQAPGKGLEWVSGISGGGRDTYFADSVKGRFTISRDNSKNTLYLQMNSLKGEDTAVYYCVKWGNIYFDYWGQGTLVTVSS VL: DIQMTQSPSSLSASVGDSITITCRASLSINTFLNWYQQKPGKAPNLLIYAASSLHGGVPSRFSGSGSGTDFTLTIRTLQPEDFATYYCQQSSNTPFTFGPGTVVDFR

>  <classAssignment>
not fulfilled

$$$$
>  <binder>
mAb16 (analog of dostarlimab) (antibody, V domains shown, VH; IgG4 heavy-chain constant region with stabilizing 226CPPC hinge; VL; IgG4 analog; source: HEK293 suspension cells, cotransfected, purified (Protein A)) VH: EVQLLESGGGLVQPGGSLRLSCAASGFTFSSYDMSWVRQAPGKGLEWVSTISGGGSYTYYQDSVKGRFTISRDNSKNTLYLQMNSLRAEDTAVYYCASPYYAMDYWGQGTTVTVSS VL: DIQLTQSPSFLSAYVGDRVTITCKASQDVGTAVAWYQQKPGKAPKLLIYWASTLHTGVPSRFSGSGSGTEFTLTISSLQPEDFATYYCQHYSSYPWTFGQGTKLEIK

>  <classAssignment>
not fulfilled

$$$$
>  <binder>
mAb17 (analog of camrelizumab) (antibody, V domains shown, VH; IgG4 heavy-chain constant region with stabilizing 226CPPC hinge; VL; IgG4 analog; source: HEK293 suspension cells, cotransfected, purified (Protein A)) VH: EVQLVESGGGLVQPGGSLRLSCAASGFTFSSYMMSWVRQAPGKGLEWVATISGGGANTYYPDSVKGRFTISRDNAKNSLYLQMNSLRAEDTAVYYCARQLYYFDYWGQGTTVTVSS VL: DIQMTQSPSSLSASVGDRVTITCLASQTIGTWLTWYQQKPGKAPKLLIYTATSLADGVPSRFSGSGSGTDFTLTISSLQPEDFATYYCQQVYSIPWTFGGGTKVEIK

>  <classAssignment>
not fulfilled

$$$$
>  <binder>
mAb03 (analog of tislelizumab) (antibody, V domains shown, VH; IgG4 heavy-chain constant region with stabilizing 226CPPC hinge; VL; IgG4 analog; source: HEK293 suspension cells, cotransfected, purified (Protein A)) VH: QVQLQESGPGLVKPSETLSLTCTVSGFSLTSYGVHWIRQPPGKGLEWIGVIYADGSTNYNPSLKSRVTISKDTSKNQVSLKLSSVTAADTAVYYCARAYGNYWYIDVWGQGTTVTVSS VL: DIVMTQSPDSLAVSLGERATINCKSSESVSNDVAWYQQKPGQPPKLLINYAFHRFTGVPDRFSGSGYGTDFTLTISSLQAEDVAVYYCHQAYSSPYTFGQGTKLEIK

>  <classAssignment>
fulfilled

$$$$
>  <binder>
mAb19 (analog of sasanlimab) (antibody, V domains shown, VH; IgG4 heavy-chain constant region with stabilizing 226CPPC hinge; VL; IgG4 analog; source: HEK293 suspension cells, cotransfected, purified (Protein A)) VH: QVQLVQSGAEVKKPGASVKVSCKASGYTFTSYWINWVRQAPGQGLEWMGNIYPGSSLTNYNEKFKNRVTMTRDTSTSTVYMELSSLRSEDTAVYYCARLSTGTFAYWGQGTLVTVSS VL: DIVMTQSPDSLAVSLGERATINCKSSQSLWDSGNQKNFLTWYQQKPGQPPKLLIYWTSYRESGVPDRFSGSGSGTDFTLTISSLQAEDVAVYYCQNDYFYPHTFGGGTKVEIK

>  <classAssignment>
fulfilled

$$$$
>  <binder>
mAb04 (analog of retifanlimab) (antibody, V domains shown, VH; IgG4 heavy-chain constant region with stabilizing 226CPPC hinge; VL; IgG4 analog; source: HEK293 suspension cells, cotransfected, purified (Protein A)) VH: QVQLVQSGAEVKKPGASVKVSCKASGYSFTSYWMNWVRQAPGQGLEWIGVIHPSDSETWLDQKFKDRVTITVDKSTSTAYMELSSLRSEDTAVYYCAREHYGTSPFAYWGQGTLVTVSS VL: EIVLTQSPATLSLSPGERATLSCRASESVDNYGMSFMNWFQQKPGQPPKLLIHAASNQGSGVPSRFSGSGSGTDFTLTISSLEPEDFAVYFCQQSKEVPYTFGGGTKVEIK

>  <classAssignment>
fulfilled

$$$$
>  <binder>
mAb21 (analog of sintilimab) (antibody, V domains shown, VH; IgG4 heavy-chain constant region with stabilizing 226CPPC hinge; VL; IgG4 analog; source: HEK293 suspension cells, cotransfected, purified (Protein A)) VH: QVQLVQSGAEVKKPGSSVKVSCKASGGTFSSYAISWVRQAPGQGLEWMGLIIPMFDTAGYAQKFQGRVAITVDESTSTAYMELSSLRSEDTAVYYCARAEHSSTGTFDYWGQGTLVTVSS VL: DIQMTQSPSSVSASVGDRVTITCRASQGISSWLAWYQQKPGKAPKLLISAASSLQSGVPSRFSGSGSGTDFTLTISSLQPEDFATYYCQQANHLPFTFGGGTKVEIK

>  <classAssignment>
fulfilled

$$$$
